Tested on: human APOE RNA
Test: Dose-dependent inhibition of human APOE RNA in HepG2 cells, electroporation, 24 hours (Example 6)
Assay type: cell-based
Details: 3,200 nM
Procedure: Modified oligonucleotides selected from the examples above were tested at various doses in HepG2. HepG2 cells plated at a density of 50,000 cells per well were treated by electroporation with various concentrations of modified oligonucleotide as specified in the tables below. […] APOE RNA levels were measured using the human primer probe set RTS3073 (described herein above). APOE RNA levels were normalized to human GAPDH. […]
Strand notation (5' to 3'): a small letter for the sugar, then the base; units joined by * are phosphorothioate-linked, units joined directly phosphodiester-linked; [ ] holds rarer units or linkages, { } end groups; capitals alone tell only the bases. [ms] = mesyl phosphoramidate linkage; e = 2'-O-(2-methoxyethyl) (MOE); k = constrained ethyl (cEt); [5mC] = 5-methylcytosine; d = 2'-deoxy (DNA)
Quantity Name: APOE RNA (% UTC)
// note: answer is a bare numeric in % UTC

According to the records, this substance 1736532 (e[5mC]*eT*eT*eG*kG*kTdG[ms]dA[ms]dA[ms]dT*d[5mC]*dT*dT*dT*dA[ms]dT*eT*eA*eA*eA; antisense) [Compound 1736532] displays APOE RNA (% UTC) of 17

According to the records, this substance 1736492 (e[5mC]*eTeT*eG*eG*eT*dG[ms]dA[ms]dA[ms]dT*d[5mC]*dT*dT*dT*dA[ms]dT*kT*eA*eA*eA; antisense) [Compound 1736492] displays APOE RNA (% UTC) of 41

According to the records, this substance 1736521: 6-10-4 MOE gapmer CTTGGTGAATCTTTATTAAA, linkages sosssszzzsssssssoss (e[5mC]*eTeT*eG*eG*eT*dG[ms]dA[ms]dA[ms]dT*d[5mC]*dT*dT*dT*dA*dT*eTeA*eA*eA) [compound 1736521] displays APOE RNA (% UTC) of 18

According to the records, this substance 1736523: 6-10-4 MOE gapmer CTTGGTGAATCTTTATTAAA, linkages ssoooszzssssssssoss (e[5mC]*eT*eTeGeGeT*dG[ms]dA[ms]dA*dT*d[5mC]*dT*dT*dT*dA*dT*eTeA*eA*eA) [compound 1736523] displays APOE RNA (% UTC) of 39

According to the records, this substance 1736534 (e[5mC]*eT*eT*eG*eGeT*dG[ms]dA[ms]dA[ms]dT*d[5mC]*dT*dT*dT*dA[ms]dT*kT*kA*eA*eA; antisense) [Compound 1736534] displays APOE RNA (% UTC) of 24
